Please go through the items and note down their MIC80.
Test system: Trichophyton rubrum
Assay: Antifungal activity against Trichophyton rubrum by NCCLS method
Type: functional
Give bare numbers, in µg/mL.

Worked set:
The value of MIC80 measured for the molecule CN(Cc1cccs1)CC(O)(Cn1cncn1)c1ccc(F)cc1F (racemic) turned out to be 1

Summary for this molecule, CN(Cc1ccco1)CC(O)(Cn1cncn1)c1ccc(F)cc1F (racemic) : MIC80 is 1

Below: the item to evaluate.
What the record says about OC(Cn1cncn1)(Cn1cncn1)c1ccc(F)cc1F [FLUCONAZOLE] : MIC80 is 1

---

Hi there, I'd appreciate the recorded AUC(0-inf) for every entry that follows.
Experiment: AUC (0 to infinity) in Sprague-Dawley rat at 15 mg/kg, po by LC/MS/MS analysis
Format: ADME, organism-based
Parameters: time infinity, dose 15 mg/kg, route oral
Conditions: plasma
One number for each entry, in ng·h/mL.

// OC(CN1CCN(Cc2nc3ccccc3s2)CC1)(Cn1cncn1)c1ccc(F)cc1F (racemic) : AUC(0-inf) value = 1420

Moving on to the next compound.
Entry CN(Cc1ccc(I)cc1)CC(O)(Cn1cncn1)c1ccc(F)cc1F (configuration not stated) , AUC(0-inf) reported as 546

---

Record form. Attribute: Ratio. Fill in for each entry.
System: Cryptococcus neoformans
Experiment: Ratio of fluconazole MIC80 to compound MIC80 for Cryptococcus neoformans
Assay type: functional

Use the examples below as a reference point.
Kindly note the recorded Ratio for CN(Cc1ccco1)CC(O)(Cn1cncn1)c1ccc(F)cc1F (racemic) , which is 32

The value of Ratio measured for the compound OC(CN1CCN(Cc2nc3ccccc3s2)CC1)(Cn1cncn1)c1ccc(F)cc1F (racemic) turned out to be 125

CN(Cc1cccs1)CC(O)(Cn1cncn1)c1ccc(F)cc1F (racemic) has a reported Ratio of 125

Batch of 6 compounds: report Ratio for each.
1. OC(CN1CCN(Cc2ccccn2)CC1)(Cn1cncn1)c1ccc(F)cc1F (racemic)
2. OC(CN1CCN(Cc2ccc3ccccc3n2)CC1)(Cn1cncn1)c1ccc(F)cc1F (racemic)
3. CN(Cc1ccccn1)CC(O)(Cn1cncn1)c1ccc(F)cc1F (racemic)
4. CN(Cc1ccc2ccccc2n1)CC(O)(Cn1cncn1)c1ccc(F)cc1F (racemic)
5. OC(CN1CCN(Cc2nc3ccccc3o2)CC1)(Cn1cncn1)c1ccc(F)cc1F (racemic)
6. OC(CN1CCN(Cc2cccs2)CC1)(Cn1cncn1)c1ccc(F)cc1F (racemic)

output:
2
32
8
8
32
8

---

Test: Tmax in Sprague-Dawley rat at 15 mg/kg, po by LC/MS/MS analysis
Format: ADME, organism-based
Design: dose 15 mg/kg, route oral
Conditions: in vivo
For each record, write down the corresponding Tmax.
Answers are plain numbers, in min.

response.value for CN(Cc1ccc(I)cc1)CC(O)(Cn1cncn1)c1ccc(F)cc1F (configuration not stated) (field: Tmax) = 54

Turning now to a further compound:
Query OC(CN1CCN(Cc2nc3ccccc3s2)CC1)(Cn1cncn1)c1ccc(F)cc1F (racemic) yields Tmax of 48

---

For each of the compounds below, state its half-life.
Test: Half life in Sprague-Dawley rat at 15 mg/kg, po by LC/MS/MS analysis
Format: ADME, organism-based
Set-up: dose 15 mg/kg, route oral
Conditions: in vivo
Give bare numbers, in h.

OC(CN1CCN(Cc2nc3ccccc3s2)CC1)(Cn1cncn1)c1ccc(F)cc1F (racemic) has a reported half-life of 1.27

// moving on: another record for half-life
Form field half-life, entry CN(Cc1ccc(I)cc1)CC(O)(Cn1cncn1)c1ccc(F)cc1F (configuration not stated) : 1.38
